FYI, the data here is from patent US7534809B2.

# assay_remarks: PK and oral bioavailability in the dog
# Type: in vivo, Beagle dogs
# condition_info: Beagle, plasma, PO, 5.0 mg/kg, 0.5% MC
measured_property: AUC(0-t) (ng·h/mL)

compound | readout_number
COP(=O)(c1cc(C)cc(C)c1)c1c(C(=O)NCc2cc[n+]([O-])cc2)[nH]c2ccc(Cl)cc12 (stereo not shown) | 696

---

pIC50: −log10 of the molar value.
As an illustration, consider measured pIC50 for compounds on UniProt:P08684.
Sequence (P08684 whole entry): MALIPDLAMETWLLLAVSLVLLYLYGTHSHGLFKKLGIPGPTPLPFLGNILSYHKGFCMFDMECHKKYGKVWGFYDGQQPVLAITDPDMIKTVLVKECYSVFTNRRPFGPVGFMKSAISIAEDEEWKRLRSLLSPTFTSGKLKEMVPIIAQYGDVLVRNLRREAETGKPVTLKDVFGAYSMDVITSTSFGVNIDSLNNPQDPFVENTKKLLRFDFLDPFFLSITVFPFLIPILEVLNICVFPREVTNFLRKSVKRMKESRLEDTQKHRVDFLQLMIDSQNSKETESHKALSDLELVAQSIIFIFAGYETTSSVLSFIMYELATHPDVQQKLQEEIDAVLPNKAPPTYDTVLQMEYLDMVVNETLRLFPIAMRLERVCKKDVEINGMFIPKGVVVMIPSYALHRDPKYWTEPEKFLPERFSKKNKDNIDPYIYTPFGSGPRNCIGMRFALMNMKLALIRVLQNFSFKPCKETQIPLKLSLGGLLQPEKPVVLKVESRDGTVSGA
measured_property: pIC50

compound | measured_property | readout_number
COP(=O)(C1=C(C(=O)NCc2ccncc2)N=C2C=CC(Cl)=C(F)C21)c1cc(C)cc(C)c1 (stereo not drawn) | pIC50 | 6.09
COP(=O)(c1cc(C)cc(C)c1)c1c(C(=O)NCc2cc[n+]([O-])cc2)[nH]c2ccc(Cl)c(F)c12 (stereo not drawn) | pIC50 | 5.98
COP(=O)(c1cc(C)cc(C)c1)c1c(C(=O)NCc2cc[n+]([O-])cc2)[nH]c2ccc(Cl)cc12 (stereo not drawn) | pIC50 | 5.97
COP(=O)(c1cc(C)cc(F)c1)c1c(C(=O)NCc2cc[n+]([O-])cc2)[nH]c2ccc(Cl)cc12 (stereo not drawn) | pIC50 | 5.94
COP(=O)(C1=C(C(=O)NCc2ccncc2)N=C2C=CC(Cl)=CC21)c1cc(C)cc(C)c1 (stereo not drawn) | pIC50 | 6.18
COP(=O)(C1=C(C(=O)NCc2ccncc2)N=C2C=CC(Cl)=CC21)c1cc(C)cc(F)c1 (stereo not drawn) | pIC50 | 6.11
